Source of measurements: BigSolDB 2.1

- run.parameters: in n-butanol, 308.15 K
metric.name: solubility (mole fraction)

>>> reported_value("Clc1cccnc1Cl")
0.197

* * *

- run.parameters: in isobutanol, 313.15 K
metric.name: solubility (mole fraction)

>>> reported_value("Clc1cccnc1Cl")
0.232

* * *

- run.parameters: in n-hexane, 308.15 K
metric.name: solubility (mole fraction)

>>> reported_value("Clc1cccnc1Cl")
0.0906

* * *

- run.parameters: in isobutanol, 303.15 K
metric.name: solubility (mole fraction)

>>> reported_value("Clc1cccnc1Cl")
0.14

* * *

- run.parameters: in methyl acetate, 278.15 K
metric.name: solubility (mole fraction)

>>> reported_value("Clc1cccnc1Cl")
0.146

* * *

- run.parameters: in cyclohexane, 308.15 K
metric.name: solubility (mole fraction)

>>> reported_value("Clc1cccnc1Cl")
0.145

* * *

- run.parameters: in dichloromethane, 298.15 K
metric.name: solubility (mole fraction)

>>> reported_value("Clc1cccnc1Cl")
0.346

* * *

- run.parameters: in n-butanol, 283.15 K
metric.name: solubility (mole fraction)

>>> reported_value("Clc1cccnc1Cl")
0.0607

* * *

- run.parameters: in ethyl acetate, 303.15 K
metric.name: solubility (mole fraction)

>>> reported_value("Clc1cccnc1Cl")
0.349

* * *

- run.parameters: in cyclohexane, 298.15 K
metric.name: solubility (mole fraction)

>>> reported_value("Clc1cccnc1Cl")
0.0796

* * *

- run.parameters: in acetonitrile, 283.15 K
metric.name: solubility (mole fraction)

>>> reported_value("Clc1cccnc1Cl")
0.0806

* * *

- run.parameters: in isopropanol, 303.15 K
metric.name: solubility (mole fraction)

>>> reported_value("Clc1cccnc1Cl")
0.117

* * *

- run.parameters: in 1,4-dioxane, 308.15 K
metric.name: solubility (mole fraction)

>>> reported_value("Clc1cccnc1Cl")
0.442

* * *

- run.parameters: in isopropanol, 308.15 K
metric.name: solubility (mole fraction)

>>> reported_value("Clc1cccnc1Cl")
0.154

* * *

- run.parameters: in n-propanol, 308.15 K
metric.name: solubility (mole fraction)

>>> reported_value("Clc1cccnc1Cl")
0.164

* * *

- run.parameters: in isobutanol, 278.15 K
metric.name: solubility (mole fraction)

>>> reported_value("Clc1cccnc1Cl")
0.0394

* * *

- run.parameters: in n-butyl acetate, 283.15 K
metric.name: solubility (mole fraction)

>>> reported_value("Clc1cccnc1Cl")
0.213

* * *

- run.parameters: in n-butyl acetate, 288.15 K
metric.name: solubility (mole fraction)

>>> reported_value("Clc1cccnc1Cl")
0.246

* * *

- run.parameters: in ethyl acetate, 313.15 K
metric.name: solubility (mole fraction)

>>> reported_value("Clc1cccnc1Cl")
0.46

* * *

- run.parameters: in methanol, 293.15 K
metric.name: solubility (mole fraction)

>>> reported_value("Clc1cccnc1Cl")
0.0505

* * *

- run.parameters: in acetonitrile, 308.15 K
metric.name: solubility (mole fraction)

>>> reported_value("Clc1cccnc1Cl")
0.295

* * *

- run.parameters: in ethanol, 293.15 K
metric.name: solubility (mole fraction)

>>> reported_value("Clc1cccnc1Cl")
0.071

* * *

- run.parameters: in n-propanol, 293.15 K
metric.name: solubility (mole fraction)

>>> reported_value("Clc1cccnc1Cl")
0.0804

* * *

- run.parameters: in cyclohexane, 313.15 K
metric.name: solubility (mole fraction)

>>> reported_value("Clc1cccnc1Cl")
0.187
